Ref: paper PMC5908784

Target: hCTR N288A (Homo sapiens, UniProt P30988, N288A)
Construct: expressed in transfected cells
Sequence (P30988 25-474 N288A): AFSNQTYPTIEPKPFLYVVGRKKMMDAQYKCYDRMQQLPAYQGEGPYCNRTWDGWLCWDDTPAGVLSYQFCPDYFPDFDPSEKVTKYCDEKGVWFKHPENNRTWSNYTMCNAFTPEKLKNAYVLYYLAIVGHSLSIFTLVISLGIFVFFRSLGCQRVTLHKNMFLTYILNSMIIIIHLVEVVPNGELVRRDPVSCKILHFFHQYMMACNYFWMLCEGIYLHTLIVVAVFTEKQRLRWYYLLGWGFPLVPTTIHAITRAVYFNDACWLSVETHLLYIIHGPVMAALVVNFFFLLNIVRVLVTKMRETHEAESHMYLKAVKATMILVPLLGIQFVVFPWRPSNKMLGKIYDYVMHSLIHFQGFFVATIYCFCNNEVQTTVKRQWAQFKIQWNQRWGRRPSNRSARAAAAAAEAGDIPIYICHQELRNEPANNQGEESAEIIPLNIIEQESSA
Test: Homologous whole cell competition binding
Settings: homologous competition of 125I-sCT(8-32), whole cells, mean ± S.E.M., SEM
Where no end group is shown, it is not given here.
OBSERVED_PROPERTY: Ki
In your response, the unit should come after the numeric value.

stdin: Request body: readout Ki, system hCTR N288A (Homo sapiens, UniProt P30988, N288A), query VLGKLSQELHKLQTYPRTNTGSGTP-NH2 [sCT(8-32)] . Return the value.
stdout: 0.234 nM

* * *

target: hCTR T280A (Homo sapiens, UniProt P30988, T280A); construct: expressed in transfected cells; experiment: Homologous whole cell competition binding; conditions: homologous competition of 125I-sCT(8-32), whole cells, mean ± S.E.M., SEM
Where no end group is shown, it is not given here.
OBSERVED_PROPERTY: Ki (nM)
Just the number in nM, nothing appended.

stdin: I have this substance here, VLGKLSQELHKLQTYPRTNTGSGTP-NH2 [sCT(8-32)] , and I need its recorded Ki.
stdout: 0.245

* * *

molecular target: hCTR D373A (Homo sapiens, UniProt P30988, D373A); construct: c-Myc (N); expressed in transfected cells; assay: Homologous whole cell competition binding; details: homologous competition of 125I-sCT(8-32), whole cells, mean ± S.E.M., SEM
Where no end group is shown, it is not given here.
OBSERVED_PROPERTY: pKi
Keep it numeric: pKi is minus log10 of the concentration in mol/L.

stdin: Request body: readout pKi, system hCTR D373A (Homo sapiens, UniProt P30988, D373A), query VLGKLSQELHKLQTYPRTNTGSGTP-NH2 [sCT(8-32)] . Return the value.
stdout: 9.28

* * *

target: hCTR I279A (Homo sapiens, UniProt P30988, I279A); construct: expressed in transfected cells; experiment: Homologous whole cell competition binding; settings: homologous competition of 125I-sCT(8-32), whole cells, mean ± S.E.M., SEM
Where no end group is shown, it is not given here.
OBSERVED_PROPERTY: Ki (nM)
Just the number in nM, nothing appended.

stdin: I have this substance here, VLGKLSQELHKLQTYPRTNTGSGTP-NH2 [sCT(8-32)] , and I need its recorded Ki.
stdout: 0.191
